Source of measurements: ChEMBL document CHEMBL4715897

- System: Pichia kudriavzevii
- test.method.notes: Antifungal activity against Candida krusei ATCC 6258 assessed as reduction in microbial growth
- Type: functional
test.readout: MIC90 (µg/mL)
Write the answer as a number in µg/mL, unit excluded.

Prompt line: Look at this compound and give its reported MIC90. `Cc1ccc(N)c2c(NCCO)c3ccccc3nc12`
Response line: 64

Prompt line: Look at this compound and give its reported MIC90. `Cc1ccc([N+](=O)[O-])c2c(NCCO)c3ccccc3nc12`
Response line: 8

Prompt line: Look at this compound and give its reported MIC90. `NCCCC[C@H](N)C(=O)NCCCNc1c2ccccc2nc2cccc([N+](=O)[O-])c12`
Response line: 64

Prompt line: Look at this compound and give its reported MIC90. `NCCCC[C@H](N)C(=O)OCCNc1c2ccccc2nc2cccc([N+](=O)[O-])c12`
Response line: 16

Prompt line: Look at this compound and give its reported MIC90. `C[C@@H]1[C@H](O)[C@@H](C)/C=C/C=C/C=C/C=C/C=C/C=C/C=C/[C@H](O[C@@H]2O[C@H](C)[C@@H](O)[C@H](N)[C@@H]2O)C[C@@H]2O[C@](O)(C[C@@H](O)C[C@@H](O)[C@H](O)CC[C@@H](O)C[C@@H](O)CC(=O)O[C@H]1C)C[C@H](O)[C@H]2C(=O)O`
Response line: 1

Prompt line: Look at this compound and give its reported MIC90. `O=[N+]([O-])c1cccc2nc3ccccc3c(NCCNCCNCCNc3c4ccccc4nc4cccc([N+](=O)[O-])c34)c12`
Response line: 32

Prompt line: Look at this compound and give its reported MIC90. `Cc1ccc([N+](=O)[O-])c2c(NCCOC(=O)[C@@H](N)CCCCN)c3ccccc3nc12`
Response line: 16

Prompt line: Look at this compound and give its reported MIC90. `O=[N+]([O-])c1cccc2nc3ccccc3c(NCCO)c12`
Response line: 8

Prompt line: Look at this compound and give its reported MIC90. `Cc1ccc([N+](=O)[O-])c2c(NCCCNC(=O)[C@@H](N)CCCCN)c3ccccc3nc12`
Response line: 64

###

For each record, write down the corresponding MIC90.
- System: Nakaseomyces glabratus
- test.method.notes: Antifungal activity against Candida glabrata ATCC 90030 assessed as reduction in microbial growth
- Assay type: functional

Prompt line: Look at this compound and give its reported MIC90. `O=C(CCCCC(=O)OCCNc1c2ccccc2nc2cccc([N+](=O)[O-])c12)OCCNc1c2ccccc2nc2cccc([N+](=O)[O-])c12`
Response line: > 16 µg/mL

Prompt line: Look at this compound and give its reported MIC90. `Cc1ccc([N+](=O)[O-])c2c(NCCCN(C)CCCNc3c4ccccc4nc4c(C)ccc([N+](=O)[O-])c34)c3ccccc3nc12`
Response line: > 16 µg/mL

Prompt line: Look at this compound and give its reported MIC90. `Cc1ccc([N+](=O)[O-])c2c(NCCOC(=O)CCCCC(=O)OCCNc3c4ccccc4nc4c(C)ccc([N+](=O)[O-])c34)c3ccccc3nc12`
Response line: > 32 µg/mL

Prompt line: Look at this compound and give its reported MIC90. `Cc1ccc([N+](=O)[O-])c2c(NCCNCCNCCNc3c4ccccc4nc4c(C)ccc([N+](=O)[O-])c34)c3ccccc3nc12`
Response line: > 32 µg/mL

###

- Test system: Saccharomyces cerevisiae
- test.method.notes: Antifungal activity against Saccharomyces cerevisiae ATCC 9763 assessed as reduction in microbial growth
- Format: functional
For each record, write down the corresponding MIC90.

Prompt line: State its MIC90 on Saccharomyces cerevisiae: `O=C(CCCCC(=O)OCCNc1c2ccccc2nc2cccc([N+](=O)[O-])c12)OCCNc1c2ccccc2nc2cccc([N+](=O)[O-])c12`
Response line: > 16 µg/mL

Prompt line: State its MIC90 on Saccharomyces cerevisiae: `Cc1ccc([N+](=O)[O-])c2c(NCCOC(=O)CCCCC(=O)OCCNc3c4ccccc4nc4c(C)ccc([N+](=O)[O-])c34)c3ccccc3nc12`
Response line: > 32 µg/mL

Prompt line: State its MIC90 on Saccharomyces cerevisiae: `Nc1cccc2nc3ccccc3c(NCCO)c12`
Response line: > 64 µg/mL

###

For each record, write down the corresponding MIC90.
- System: Pichia kudriavzevii
- test.method.notes: Antifungal activity against Candida krusei ATCC 6258 assessed as reduction in microbial growth
- Type: functional

Prompt line: Look at this molecule and give its reported MIC90. `CN(CCCNc1c2ccccc2nc2cccc([N+](=O)[O-])c12)CCCNc1c2ccccc2nc2cccc([N+](=O)[O-])c12`
Response line: > 16 µg/mL

Prompt line: Look at this molecule and give its reported MIC90. `Nc1cccc2nc3ccccc3c(NCCO)c12`
Response line: > 64 µg/mL

Prompt line: Look at this molecule and give its reported MIC90. `O=C(CCCCC(=O)OCCNc1c2ccccc2nc2cccc([N+](=O)[O-])c12)OCCNc1c2ccccc2nc2cccc([N+](=O)[O-])c12`
Response line: > 16 µg/mL

Prompt line: Look at this molecule and give its reported MIC90. `Cc1ccc([N+](=O)[O-])c2c(NCCCN(C)CCCNc3c4ccccc4nc4c(C)ccc([N+](=O)[O-])c34)c3ccccc3nc12`
Response line: > 16 µg/mL

Prompt line: Look at this molecule and give its reported MIC90. `Cc1ccc([N+](=O)[O-])c2c(NCCOC(=O)CCCCC(=O)OCCNc3c4ccccc4nc4c(C)ccc([N+](=O)[O-])c34)c3ccccc3nc12`
Response line: > 32 µg/mL

Prompt line: Look at this molecule and give its reported MIC90. `Cc1ccc([N+](=O)[O-])c2c(NCCNCCNCCNc3c4ccccc4nc4c(C)ccc([N+](=O)[O-])c34)c3ccccc3nc12`
Response line: > 32 µg/mL
